Listed here: molecules with reported pKi for UniProtKB P00915.
pKi here: minus log base 10 of the concentration, concentration in moles per litre.

The reported pKi value, UniProtKB P00915, for O=C1C(=O)N(CN2CCOCC2)c2ccccc21 reads 8.07

The reported pKi value, UniProtKB P00915, for CN1CCN(CN2C(=O)C(=O)c3ccccc32)CC1 reads 8.07

###

Listed here: compounds with reported Ki for Carbonic anhydrase 2 (Homo sapiens, UniProt P00918).

Sample records with Ki:
[
  {
    "STRUCTURE NOTATION": "COc1ccc(-c2cccc3c2OS(=O)(=O)CC=C3)cc1",
    "Ki": "> 100 µM"
  },
  {
    "STRUCTURE NOTATION": "O=S1(=O)CC=Cc2cc(-c3ccccc3)ccc2O1",
    "Ki": "> 100 µM"
  },
  {
    "STRUCTURE NOTATION": "CCOC(=O)c1ccc(-c2ccc3c(c2)OS(=O)(=O)CC=C3)cc1",
    "Ki": "> 100 µM"
  },
  {
    "STRUCTURE NOTATION": "O=S1(=O)CC=Cc2ccc(-c3ccc(C(F)(F)F)cc3)cc2O1",
    "Ki": "> 100 µM"
  },
  {
    "STRUCTURE NOTATION": "O=S1(=O)CC=Cc2cc(-c3ccc(C(F)(F)F)cc3)ccc2O1",
    "Ki": "> 100 µM"
  },
  {
    "STRUCTURE NOTATION": "CCOC(=O)c1ccc(-c2ccc3c(c2)C=CCS(=O)(=O)O3)cc1",
    "Ki": "> 100 µM"
  },
  {
    "STRUCTURE NOTATION": "O=S1(=O)CC=Cc2cccc(-c3ccc(F)cc3)c2O1",
    "Ki": "> 100 µM"
  },
  {
    "STRUCTURE NOTATION": "O=S1(=O)CC=Cc2cccc(Br)c2O1",
    "Ki": "> 100 µM"
  },
  {
    "STRUCTURE NOTATION": "O=S1(=O)CC=Cc2cccc(-c3ccccc3)c2O1",
    "Ki": "> 100 µM"
  },
  {
    "STRUCTURE NOTATION": "O=S1(=O)CC=Cc2ccc(-c3ccc(F)cc3)cc2O1",
    "Ki": "> 100 µM"
  }
]

Looking up O=S1(=O)CC=Cc2ccc(Br)cc2O1 , I see its Ki listed as > 100 µM

Looking up O=S1(=O)CC=Cc2ccc(-c3ccccc3)cc2O1 , I see its Ki listed as > 100 µM

###

Listed here: compounds with reported Ki for Carbonic anhydrase 1 (Homo sapiens, UniProt P00915).

[
  {
    "COMPOUND": "O=C(O)CN1C(=O)S/C(=C/c2ccc(Br)cc2)C1=O",
    "Ki": "> 100000 nM"
  },
  {
    "COMPOUND": "COc1cc(C2CC(c3ccc(Br)cc3)=NN2c2ccc(S(N)(=O)=O)cc2)cc(OC)c1OC (stereo not given)",
    "Ki": "> 230 nM"
  },
  {
    "COMPOUND": "COc1cc(OC)c(C2CC(c3ccc(Cl)cc3)=NN2c2ccc(S(N)(=O)=O)cc2)cc1OC (stereo not given)",
    "Ki": "> 230 nM"
  },
  {
    "COMPOUND": "COc1cc(C2CC(c3ccc(C(F)(F)F)cc3)=NN2c2ccc(S(N)(=O)=O)cc2)cc(OC)c1OC (stereo not given)",
    "Ki": "> 230 nM"
  },
  {
    "COMPOUND": "COc1ccc(/C=C2/SC(=O)N(CC(=O)O)C2=O)cc1",
    "Ki": "> 100000 nM"
  },
  {
    "COMPOUND": "COc1cc(OC)c(C2CC(c3cccs3)=NN2c2ccc(S(N)(=O)=O)cc2)cc1OC (stereo not given)",
    "Ki": "> 230 nM"
  }
]

The reported Ki value, Carbonic anhydrase 1 (Homo sapiens, UniProt P00915), for O=C(O)CN1C(=O)S/C(=C/c2ccccc2Cl)C1=O reads > 100000 nM

The reported Ki value, Carbonic anhydrase 1 (Homo sapiens, UniProt P00915), for COc1cccc(/C=C2/SC(=O)N(CC(=O)O)C2=O)c1 reads > 100000 nM

The reported Ki value, Carbonic anhydrase 1 (Homo sapiens, UniProt P00915), for COc1cc(C2CC(c3ccccc3)=NN2c2ccc(S(N)(=O)=O)cc2)cc(OC)c1OC (stereo not given) reads > 230 nM

The reported Ki value, Carbonic anhydrase 1 (Homo sapiens, UniProt P00915), for COc1ccc(C2CC(c3ccc(C(F)(F)F)cc3)=NN2c2ccc(S(N)(=O)=O)cc2)c(OC)c1OC (stereo not given) reads > 230 nM

The reported Ki value, Carbonic anhydrase 1 (Homo sapiens, UniProt P00915), for COc1cc(C2CC(c3ccc(Cl)cc3)=NN2c2ccc(S(N)(=O)=O)cc2)cc(OC)c1OC (stereo not given) reads > 230 nM

The reported Ki value, Carbonic anhydrase 1 (Homo sapiens, UniProt P00915), for COc1cc(OC)c(C2CC(c3ccccc3)=NN2c2ccc(S(N)(=O)=O)cc2)cc1OC (stereo not given) reads > 230 nM

The reported Ki value, Carbonic anhydrase 1 (Homo sapiens, UniProt P00915), for COc1ccc(C2CC(c3cccs3)=NN2c2ccc(S(N)(=O)=O)cc2)c(OC)c1OC (stereo not given) reads > 230 nM

The reported Ki value, Carbonic anhydrase 1 (Homo sapiens, UniProt P00915), for COc1ccc(C2CC(c3ccc(Br)cc3)=NN2c2ccc(S(N)(=O)=O)cc2)c(OC)c1OC (stereo not given) reads > 230 nM

The reported Ki value, Carbonic anhydrase 1 (Homo sapiens, UniProt P00915), for COc1ccc(C2CC(c3ccc(F)cc3)=NN2c2ccc(S(N)(=O)=O)cc2)c(OC)c1OC (stereo not given) reads > 230 nM
